Biological target: LsrK (Salmonella typhimurium)
Sequence (Q8ZKQ6 whole entry): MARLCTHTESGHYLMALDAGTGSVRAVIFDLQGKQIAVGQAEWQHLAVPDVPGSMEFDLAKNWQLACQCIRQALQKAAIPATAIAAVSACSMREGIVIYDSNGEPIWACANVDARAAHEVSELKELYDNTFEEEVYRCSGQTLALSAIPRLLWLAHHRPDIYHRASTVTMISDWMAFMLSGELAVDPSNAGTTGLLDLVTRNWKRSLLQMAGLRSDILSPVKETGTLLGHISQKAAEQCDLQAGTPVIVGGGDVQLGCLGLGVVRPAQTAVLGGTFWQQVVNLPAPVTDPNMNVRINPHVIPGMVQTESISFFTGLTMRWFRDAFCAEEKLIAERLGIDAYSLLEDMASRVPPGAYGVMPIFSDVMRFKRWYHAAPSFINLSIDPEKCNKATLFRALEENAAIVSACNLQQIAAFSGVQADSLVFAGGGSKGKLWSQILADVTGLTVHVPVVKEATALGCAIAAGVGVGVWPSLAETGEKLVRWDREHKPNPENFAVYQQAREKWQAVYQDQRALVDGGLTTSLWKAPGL
Assay: biochemical
Type: biochemical, S. typhimurium
Conditions: 50 µM
ENDPOINT_LABEL: Inhibition (%)
Keep it simple and answer with nothing but the number.

Lab book: Inhibition (%) of CC(=O)OCC1=C(C(=O)[O-])N2C(=O)[C@@H](NC(=O)CCCC(N)C(=O)O)[C@H]2SC1.[Na+] (some centres unmarked) [CEPHALOSPORIN C SODIUM] noted as 32

Lab book: Inhibition (%) of CNCCCC1c2ccccc2C=Cc2ccccc21.Cl [PROTRYPTYLINE HYDROCHLORIDE] noted as 1

Lab book: Inhibition (%) of CCCCOc1cc(CC2CNC(=O)N2)ccc1OC (centres unmarked) noted as 1

Lab book: Inhibition (%) of `COC1=CC(=O)C=C(OC)C1=O` noted as 50

Lab book: Inhibition (%) of CC(=O)Oc1cccc(C)c1 [meta-CRESYL ACETATE] noted as 1

----------
Target: LsrK (Salmonella typhimurium)
Assay: biochemical
Type: biochemical, S. typhimurium
ENDPOINT_LABEL: inhibition at 50 µM
State the value with its unit after it.

Lab book: inhibition at 50 µM of `CC(C)c1cc2c(c(O)c1O)[C@@]1(C(=O)O)CCCC(C)(C)[C@@H]1CC2` noted as 2%

Lab book: inhibition at 50 µM of COc1ccc(-c2cc(=O)c3c(OC(C)=O)cc(OC(C)=O)cc3o2)cc1 [ACACETIN DIACETATE] noted as 0%

Lab book: inhibition at 50 µM of Nc1ccc(C(=O)O)c(O)c1 [AMINOSALICYLATE SODIUM] noted as 1%

Lab book: inhibition at 50 µM of N[C@@H](C(=O)O)[C@@H](O)[C@H](O)[C@H](O)CO [GL[…]] noted as 1%

Lab book: inhibition at 50 µM of `CN(C(=O)CN(CCO)CC(=O)N(C)C(C)(C)Cc1ccccc1)C(C)(C)Cc1ccccc1` noted as 0%

Lab book: inhibition at 50 µM of `CC1=C(/C=C/C(C)=C/C=C/C(C)=C/C=C/C=C(C)/C=C/C=C(C)/C=C/C2=C(C)C(=O)[C@@H](O)CC2(C)C)C(C)(C)C[C@H](O)C1=O` noted as 1%

Lab book: inhibition at 50 µM of `CC1=CC(=O)C(C(C)C)=CC1=O` noted as 2%

Lab book: inhibition at 50 µM of O=C1CN(/N=C/c2ccc(-c3ccc([N+](=O)[O-])cc3)o2)C(O)=N1 [DANTROLENE SODIUM] noted as 3%

----------
Target: LsrK (Salmonella typhimurium)
Test: biochemical
Type: biochemical, S. typhimurium
Counter-ions that a name gives are not always drawn.
Classify by measured inhibition at 50 µM: true if it is equal to or exceeds 2%, false if it is smaller.

*Q* Could you verify whether the entry C[N+]1(C)[C@@H]2CC[C@H]1C[C@@H](OC(=O)C(O)c1ccccc1)C2 (stereo partly drawn) [HOMATROPINE METHYLBROMIDE] shows inhibition at 50 µM of no less than 2%?
*A* false

*Q* Could you verify whether the entry COCCCOc1ccnc(C[S+]([O-])c2nc3ccccc3[nH]2)c1C (stereo not drawn) [RABEPRAZOLE SODIUM] shows inhibition at 50 µM of no less than 2%?
*A* false

*Q* Could you verify whether the entry Nc1ccc(S(=O)(=O)Nc2cnc3ccccc3n2)cc1 [SULFAQUINOXALINE SODIUM] shows inhibition at 50 µM of no less than 2%?
*A* false

*Q* Could you verify whether the entry O=C(CCNNC(=O)c1ccncc1)NCc1ccccc1 [NIALAMIDE] shows inhibition at 50 µM of no less than 2%?
*A* true

*Q* Could you verify whether the entry O=c1c(O)c(-c2ccc(O)c(O)c2)oc2cc(O)ccc12 [FISETIN] shows inhibition at 50 µM of no less than 2%?
*A* true

*Q* Could you verify whether the entry COc1c(O)cc2c(c1O)[C@@H]1O[C@H](CO)[C@@H](O)[C@H](O)[C@H]1OC2=O [BERGENIN] shows inhibition at 50 µM of no less than 2%?
*A* false

*Q* Could you verify whether the entry O=C(CCc1ccc(O)cc1)c1c(O)cc(O)cc1O [PHLORETIN] shows inhibition at 50 µM of no less than 2%?
*A* true

*Q* Could you verify whether the entry C[C@@H]1O[C@@H](O[C@H]2CC[C@]3(C=O)[C@H]4CC[C@]5(C)[C@@H](C6=CC(=O)OC6)CC[C@]5(O)[C@@H]4CC[C@]3(O)C2)[C@H](O)[C@H](O)[C@H]1O [CONVALLATOXIN] shows inhibition at 50 µM of no less than 2%?
*A* false

*Q* Could you verify whether the entry CC[N+](C)(CC)CCOC(=O)C(O)(c1ccccc1)C1CCCCC1 (stereo not drawn) [OXYPHENONIUM BROMIDE] shows inhibition at 50 µM of no less than 2%?
*A* true

*Q* Could you verify whether the entry Cc1ccccc1N1C(=O)c2cc(S(N)(=O)=O)c(Cl)cc2NC1C (stereo not drawn) [METOLAZONE] shows inhibition at 50 µM of no less than 2%?
*A* false

*Q* Could you verify whether the entry CCOc1ccc2ccccc2c1C(=O)N[C@@H]1C(=O)N2[C@@H]1SC(C)(C)[C@@H]2C(=O)O [NAFCILLIN SODIUM] shows inhibition at 50 µM of no less than 2%?
*A* true

*Q* Could you verify whether the entry CCCCNc1cc(C(=O)O)cc(S(N)(=O)=O)c1Oc1ccccc1 [BUMETANIDE] shows inhibition at 50 µM of no less than 2%?
*A* false

*Q* Could you verify whether the entry CC(=O)O[C@H]1CC[C@]2(C)C(C[C@@H](OC(C)=O)[C@]3(C)C4=CC(=O)O[C@H](c5ccoc5)[C@@]4(C)CCC23)C1(C)C (stereo partly drawn) [3-DEOXO-3beta-ACETOXYDEOXYDIHYDROGEDUNIN] shows inhibition at 50 µM of no less than 2%?
*A* true

*Q* Could you verify whether the entry CC1=C(/C=C/C(C)=C/C=C/C(C)=C/CO)C(C)(C)CCC1 [RETINOL] shows inhibition at 50 µM of no less than 2%?
*A* false

*Q* Could you verify whether the entry CC(C)n1c(/C=C/C(O)CC(O)CC(=O)O)c(-c2ccc(F)cc2)c2ccccc21 (stereo not drawn) [FLUVASTATIN] shows inhibition at 50 µM of no less than 2%?
*A* true

*Q* Could you verify whether the entry NC[C@@H]1O[C@H](O[C@H]2[C@@H](O)[C@H](O[C@@H]3[C@@H](O)[C@H](N)C[C@H](N)[C@H]3O[C@H]3O[C@H](CO)[C@@H](O)[C@H](O)[C@H]3N)O[C@@H]2CO)[C@H](N)[C@@H](O)[C@@H]1O [PAROMOMYCIN SULFATE] shows inhibition at 50 µM of no less than 2%?
*A* true

*Q* Could you verify whether the entry O=c1c(O)cccc2cc(O)c(O)c(O)c12 [PURPUROGALLIN] shows inhibition at 50 µM of no less than 2%?
*A* true

*Q* Could you verify whether the entry CCN(CC)CCOC(=O)C(c1ccccc1)c1ccccc1 [ADIPHENINE HYDROCHLORIDE] shows inhibition at 50 µM of no less than 2%?
*A* false

*Q* Could you verify whether the entry CCCCOc1ccc(C(=O)CCN2CCCCC2)cc1 [DYCLONINE HYDROCHLORIDE] shows inhibition at 50 µM of no less than 2%?
*A* true

*Q* Could you verify whether the entry O=c1c(O)c(-c2cc(O)c(O)c(O)c2)oc2cc(O)cc(O)c12 [MYRICETIN] shows inhibition at 50 µM of no less than 2%?
*A* true

*Q* Could you verify whether the entry O=C(O)c1cn(-c2ccc(F)cc2)c2cc(N3CCNCC3)c(F)cc2c1=O [SARAFLOXACIN HYDROCHLORIDE] shows inhibition at 50 µM of no less than 2%?
*A* false

*Q* Could you verify whether the entry O=c1cc(-c2ccccc2)oc2cc(O)cc(O)c12 [CHRYSIN] shows inhibition at 50 µM of no less than 2%?
*A* true

*Q* Could you verify whether the entry Cc1ccc(S(=O)(=O)NCl)cc1 [TOSYL[…]] shows inhibition at 50 µM of no less than 2%?
*A* true

*Q* Could you verify whether the entry COc1ccc(CN(CCN(C)C)c2ncccn2)cc1 [THONZYLAMINE HYDROCHLORIDE, reference compound] shows inhibition at 50 µM of no less than 2%?
*A* true

*Q* Could you verify whether the entry [N-]=[N+]=CC(=O)OC[C@H](N)C(=O)O [AZASERINE] shows inhibition at 50 µM of no less than 2%?
*A* true

*Q* Could you verify whether the entry CC(Cc1cccc(C(F)(F)F)c1)NCCOC(=O)c1ccccc1 (stereo not drawn) [BENFLUOREX HYDROCHLORIDE] shows inhibition at 50 µM of no less than 2%?
*A* true

*Q* Could you verify whether the entry CCCCCCCCNC(C)C(O)c1ccc(SC(C)C)cc1 (stereo not drawn) [SULOCTIDIL] shows inhibition at 50 µM of no less than 2%?
*A* false
